# method summary: qHTS assay to identify small molecule antagonists of the estrogen receptor alpha (ER-alpha) signaling pathway using the BG1 cell line - cell viability counter screen (AID 743081);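 further: compound given together with 17beta-estradiol as the ER stimulus; nearly all actives have a fitted effect of over 45% in size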
# condition parameters: BG1Luc4E2 viability, CellTiter-Fluor, 22 h; series mostly up to 70.3 µM
Records with an inconclusive call do not appear. Active and inactive are the calls of the source. The call rests on the fitted dose curve; in most records, active means well fitted cell-killing curve with a large enough effect in the repeat runs; inconclusive means weak or mixed curves, or effect the other way; inactive means flat fitted curve, though single readings scatter.
Respond with a class label; see true = active, false = inactive

molecule | qualitative label
Oc1ccc2cc(SSc3ccc4cc(O)ccc4c3)ccc2c1 | false

Prompt: For "N=C1N=C(N)c2ccccc21" , which call appears in the assay record?
Completion: false

Prompt: For "CCOC(=O)O[C@H](C)OC(=O)c1ccc2c(c1)cc(C(=O)NC1CCN(C(C)C)CC1)n2Cc1cc(-c2ccc(Cl)s2)on1" , which call appears in the assay record?
Completion: false

Prompt: For CC1=NC(C)OC1C (stereo not drawn) , which call appears in the assay record?
Completion: false

Prompt: For "CNC(=O)c1ccccc1" , which call appears in the assay record?
Completion: false

Prompt: For "CC1=C(/C=C/C(C)=C/C=C/C(C)=C/C=O)C(C)(C)CCC1" , which call appears in the assay record?
Completion: true

Prompt: For "Clc1ccc2nsnc2c1NC1=NCCN1" , which call appears in the assay record?
Completion: false

The reported measurements were obtained from PubChem BioAssay (Tox21).
